# TARGET_ENTITY: PaDHPase-Y155A (Pseudomonas aeruginosa, UniProt Q9I676, Y155A)
# Construct: mutants purified by the same protocol)
# Sequence (Q9I676 whole entry Y155A): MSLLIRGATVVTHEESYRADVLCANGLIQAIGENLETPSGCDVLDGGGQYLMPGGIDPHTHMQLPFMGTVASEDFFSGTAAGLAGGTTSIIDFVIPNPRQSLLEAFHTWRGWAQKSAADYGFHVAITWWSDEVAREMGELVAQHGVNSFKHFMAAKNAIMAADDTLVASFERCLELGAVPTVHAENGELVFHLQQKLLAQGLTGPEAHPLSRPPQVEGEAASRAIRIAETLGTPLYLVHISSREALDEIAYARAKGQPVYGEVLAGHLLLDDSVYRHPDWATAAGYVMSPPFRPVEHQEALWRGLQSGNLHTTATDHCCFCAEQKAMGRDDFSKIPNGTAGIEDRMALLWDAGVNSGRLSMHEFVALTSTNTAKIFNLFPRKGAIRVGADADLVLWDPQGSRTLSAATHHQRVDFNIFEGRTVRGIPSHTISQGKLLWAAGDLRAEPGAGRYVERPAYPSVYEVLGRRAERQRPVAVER
# TEST_NAME: Fluorescence quenching titration of PaDHPase-Y155A mutant
REPORTED_METRIC: Kd (µM)

>>> print(df.to_string())
        smiles_structure  scale_unit  experimental_result
0  Nc1c[nH]c(=O)[nH]c1=O          µM                  247

----------
# TARGET_ENTITY: PaDHPase-C318A (Pseudomonas aeruginosa, UniProt Q9I676, C318A)
# Construct: mutants purified by the same protocol)
# Sequence (Q9I676 whole entry C318A): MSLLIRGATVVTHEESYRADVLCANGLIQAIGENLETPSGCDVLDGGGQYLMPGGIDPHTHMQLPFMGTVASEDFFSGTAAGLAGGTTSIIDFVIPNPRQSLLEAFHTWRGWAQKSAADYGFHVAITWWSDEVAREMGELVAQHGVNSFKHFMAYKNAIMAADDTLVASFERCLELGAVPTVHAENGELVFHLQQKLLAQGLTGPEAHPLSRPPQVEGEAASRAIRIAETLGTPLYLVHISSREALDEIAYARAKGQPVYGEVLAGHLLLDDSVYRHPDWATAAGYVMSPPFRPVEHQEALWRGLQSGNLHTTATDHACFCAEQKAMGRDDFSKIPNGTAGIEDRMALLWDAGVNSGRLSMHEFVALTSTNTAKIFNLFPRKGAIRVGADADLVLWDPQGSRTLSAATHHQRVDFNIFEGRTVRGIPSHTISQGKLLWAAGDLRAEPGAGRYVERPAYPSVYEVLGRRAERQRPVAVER
# TEST_NAME: Fluorescence quenching titration of PaDHPase-C318A mutant
pKd: −log10 of the molar value.
REPORTED_METRIC: pKd

>>> df
                                   molecule  experimental_result
0  Nc1c[nH]c(=O)[nH]c1=O [5-AU, 5-aminouracil]                 3.99

----------
# TARGET_ENTITY: Znα-PaDHPase (mono-Zn PaDHPase) (Pseudomonas aeruginosa, UniProt Q9I676)
# Sequence (Q9I676 whole entry): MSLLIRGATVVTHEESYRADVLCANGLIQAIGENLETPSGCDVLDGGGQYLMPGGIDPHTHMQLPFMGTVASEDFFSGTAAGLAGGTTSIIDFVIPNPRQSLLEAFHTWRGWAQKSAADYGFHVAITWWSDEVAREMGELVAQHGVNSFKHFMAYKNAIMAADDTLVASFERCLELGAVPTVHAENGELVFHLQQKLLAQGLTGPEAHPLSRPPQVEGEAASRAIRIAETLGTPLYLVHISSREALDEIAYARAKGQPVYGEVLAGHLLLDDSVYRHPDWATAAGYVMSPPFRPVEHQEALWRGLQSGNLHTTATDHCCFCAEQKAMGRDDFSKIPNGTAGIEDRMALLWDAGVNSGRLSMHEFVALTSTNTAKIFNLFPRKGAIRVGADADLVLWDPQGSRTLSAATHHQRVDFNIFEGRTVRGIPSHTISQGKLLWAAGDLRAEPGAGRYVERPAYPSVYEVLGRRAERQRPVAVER
# TEST_NAME: Fluorescence quenching titration of mono-Zn PaDHPase
REPORTED_METRIC: Kd

        smiles_structure  reported_metric  experimental_result
0  Nc1c[nH]c(=O)[nH]c1=O               Kd               281 µM

----------
# TARGET_ENTITY: PaDHPase-N337A (Pseudomonas aeruginosa, UniProt Q9I676, N337A)
# Construct: mutants purified by the same protocol)
# Sequence (Q9I676 whole entry N337A): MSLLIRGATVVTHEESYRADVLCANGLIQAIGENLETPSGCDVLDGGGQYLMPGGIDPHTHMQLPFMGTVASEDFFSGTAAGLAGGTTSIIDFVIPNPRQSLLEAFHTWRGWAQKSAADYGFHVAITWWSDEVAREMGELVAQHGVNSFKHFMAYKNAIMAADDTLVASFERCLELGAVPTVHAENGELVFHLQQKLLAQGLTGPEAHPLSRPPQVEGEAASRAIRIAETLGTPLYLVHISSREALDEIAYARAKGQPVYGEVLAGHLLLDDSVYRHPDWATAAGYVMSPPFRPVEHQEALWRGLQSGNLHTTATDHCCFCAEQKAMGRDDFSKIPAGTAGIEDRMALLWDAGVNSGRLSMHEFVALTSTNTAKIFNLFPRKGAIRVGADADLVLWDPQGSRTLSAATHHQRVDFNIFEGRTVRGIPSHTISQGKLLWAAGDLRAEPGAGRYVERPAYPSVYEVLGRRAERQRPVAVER
# TEST_NAME: Fluorescence quenching titration of PaDHPase-N337A mutant
REPORTED_METRIC: Kd (µM)

In [3]: df
Out[3]:
                                   compound  reported_metric  scale_unit  experimental_result
0  Nc1c[nH]c(=O)[nH]c1=O [5-AU, 5-aminouracil]               Kd          µM                  192
